Origin of the recorded values: the RNAGym collection of RNA variant scans (doi:10.1126/science.aae0568)

B1: tRNA (parent)
chain: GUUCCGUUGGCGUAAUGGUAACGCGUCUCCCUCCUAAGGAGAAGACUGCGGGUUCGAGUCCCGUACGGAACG

- Variants of: B1
- assay: yeast fitness relative to wild type (ratio to wild type); higher = fitter; tRNA-Arg(CCU), competitive growth, 37 C, YPD
This sample holds only a part of the variants without activity.
1.0 means recorded yeast fitness is 0.6 or above; 0.0 means it is below 0.6.

seqtext=GUUCCGUUGGCGUAAUGGUAACGCAUCUCCCUCCUACGGAGAAGACUGCGGGUUCGAGUCCCGUACGUAACG label=1.0
seqtext=GUUCCAGUGGCGUAAUGGUAACGCCUCUCCCUCCUAAGGAGAAGACUGCGGGAUCGAGUCCCGUACGGCACG label=0.0
seqtext=GUUCCGUUGGCGUAAUGGUAACGCGUCUCCCUCCUAAGGAGAAGACCGCGGGUUCGAGUCCCAUACGGAACG label=1.0
seqtext=GUUCCGUUGGCGUAAUGGUAACGCGUCGCCCUCCUAAGGAGAAGAGUGUGGGUUCGAGUCCCGUACGGCACG label=0.0
seqtext=GUUCCGUUGGCGUACUAGUAAUCCGUCUCCCUCCUAAGGAGAAGACUGCGAGUUCGAGUCCCGUACGGCACG label=0.0
seqtext=GUUCCGUUGGCGUAAUGGUAACGCGUAUCCCUCCUAAGGAGAAGACUGCGGGUUGGAGUCCCGUACGGAACG label=1.0
seqtext=GUUCGGUUGGGGUAAUGGUAACGCGUGUCCCUCCUAAGGAGAAGACUACGGGUUCGAGUCCCGUACGGAACG label=0.0
seqtext=GUUCCAUUGGCGUAAUGGUACCGCGUCUCCCUCCUAAGGAGAAGACUGAGGGUUCGAGUCCCGUACGGAGCG label=0.0
seqtext=GUUGCGUUGGCGUAAUGGUAACGCGUCUCCCUCCUCGGGAGAAGACUGCGGGUUCGAGUCCCGAACGGAACG label=0.0
seqtext=GUUUCGUUGGCGUCAUGGUAACGCGUCUCCCUCCUAAGGAGAAAACUGCGGGUACGAGUCCCGUACGGAUCG label=0.0
seqtext=GUUCCGUUGGCGUAAUGGUAACGCGUCUCCCUCCUACGGAGAAGACUGCGGGUUCGAGUCCCGUACUGAACG label=1.0
seqtext=GUUCUGUUGGUGUAAUGGUAACGCAUCUCCCUCCUAGGGAGAAGACUGCGGGUUCGAGUGCCGUACGGAACG label=0.0
seqtext=GUUCCGUGGGCGUAAUGGUAACGCGACUCCCUCCUAAGGAGACGACUGCGGGUUCGAGUCCCGUACGGAACG label=0.0
seqtext=GUUCCGUUGGAGUAAUGGUAACGCGUCUCCCUCCUAAGGAGAAGACGGCGGGUUCGAGUCCCGUACGGAACG label=0.0
seqtext=GUUCCGUUGGCGUAAUGGUACCUCGUCUCCCUCCUAAGGAGAAGACUGCGGGUUCGAGUCCUGUGCGGAACG label=0.0
seqtext=GUUUCGUUGGCGUAAUGGUUACGCGUCUCCCUCCUAAGGAGAAGACUGCGGGCUCGAGUCCCGUACCGAACG label=0.0
seqtext=GCUCCGUUGGCGUAAUGGUAACGCGUGACCCUCCUAAGGAGAUGACUGCGGGUUCGAGUCAUGUUCGGCACG label=0.0
seqtext=GUUCCGUUGGCGUAAUGGUAACGCGUCUCCCUCCUAAGGAGAAGACUGCGGGGUCCAGUCCCGUACAGAACG label=0.0
seqtext=GUUCCGUUGGCGUAAUGGUAACGCGUAUCACUCCUAAGGAGAAGACUGCGGGUUCGAGUCCCGUACGGAACG label=1.0
seqtext=GUUCCGUUGGCGUAAUGGUAAGGCGUUUCCCUCCUAAGGAGAAGACUGCGGGUUCGAGACCCGUACGGAACG label=0.0
seqtext=GUUCCGUUGGCGUAAUGGUAACGCGUCCCCCUCCUAAGGAGAAGACUGGGGGUUCGAGCCCCGUACGGAACG label=0.0
seqtext=GUUCCAUUGGCGGAAUGGUAAAGCGACUGCCUCGUAAGGAGAAGACUGCCGGUUCGAGUCCCGUACGGAACG label=0.0
seqtext=GUUCCGUUGGCGUAAUGGUAACGCGUCUUCCUCCUAAGGAGAAGAAUGCGGGUUCGAGUCCCGUACGGAACG label=1.0
seqtext=GUUCCGUUGGCGAAAUGGUAACGCGUCUCCCUCCUAAGGAGAAGACUGCGGGUUCAAGUCCCGUACGGAACG label=1.0
seqtext=GUUCCGUUCGCGUAAUGGUAACGCGUCUCCCUCCUAAGGAGAAGACUGCGGGUUUGAGUCCCGUACGGAACG label=1.0
seqtext=GUUCCGUUGGCGUAAUGGUAACGCGUCUCCCUCCUAAGGAGAUGACUGCGGGUUCGAGUCCUGUACGGAACG label=1.0
seqtext=GUUCCGUUGGCCUAAUGGUAACGCGUCUCCCUCCUAAGGAGAAGUCUGCGGGUUCGAGUCGCGUACGGAACG label=0.0
seqtext=GUUCCGCUGGCGUAAUGGUAACGCGUCUCCCUCCUAAGGAGUGGACUGCGGGUUCGAGUCCCGUACGGAACG label=0.0
seqtext=GUUCCGUUGGCGUAAUGGUAACGCGACUCCCUCCUAGGGAGAAGACUGCGGGUUCGAGUCCCGAACGGAACG label=0.0
seqtext=GUUCCGUUGGCGUAAUGGCCUCGCGUCUCCCUCCUAAGGAGAAGACUGCGGGUUCGAGUCCCGUACGGAACG label=0.0
seqtext=GAUCCGUUGGCGUAAUGGUCACGCGUCUCCCUCCUAAGGAGAAGACUGCGGGUUCGAGUCCCGUAUGGAACG label=1.0
seqtext=GUUCCGUUGGCGUAAUGGUAACGCGUCUCCCUCCUAAGGAGAAGACUGCGGGUUCGAGUCCCGUACGGGGCG label=1.0
seqtext=GUUCCGUUGGCGUAAUGGUAACGCGACUCCCUCCUAAGGAGAAGACUCCGGGUUCGAGUCCCGUACGGAACG label=1.0
seqtext=GUUCCGUGGGCGUAAUGGUAACGCGUCUCCCUCCUAAGGAGACGACUGCGGGUUCGAGUCUCGUACGGAACG label=0.0
seqtext=GUUCCGUUGGCGUAAUGGUAACGCGUCUCCCUCCUGAGGAGAAGACUGUGGGUUCGAGUCCCGCACGCAACG label=0.0
seqtext=GUUCCGUUGGCGUAAUGGUAACGCGUCUCCCUCCUAGGGAGAAAACUGCGGGUUCGAGUCCCGUACGGUACG label=0.0
seqtext=GUUCCGUUAGCGUAAUGGUAACGCGUCUCCCUCCUAAGGAGCAGACUGCGGGUUCGAAUCCCGUACGGAACG label=1.0
seqtext=GUUCCGUUGGCGUAAUGGUAACGCGUCACCCUCCUAAGGAGAAGACUGCGGGUUGGAGUCCCGUACGGAGCG label=0.0
seqtext=GUGCCGUUGGUGUAAUAGCUACGCGUCUCCCUCCUAAGGAGCAGACUGCGGGUUCGAGUCCCGUCCGGUACG label=0.0
seqtext=GUUCCGUUGGCGUAACGGUAACGCCUCUCCCUCCUAAGGAGAAGACUGCGGGAUCGAGUCCCGUACGGAACG label=0.0
seqtext=GUUCCGUCGGCAUAAUGGUAACGCGUCUCCGUCCUAAGGCGAAGCCUCCGGGUUCGAGUCCCGUACGGAACG label=0.0
